The values you see were collected from ChEMBL document CHEMBL4354820.

SYSTEM NAME: UniProt:P08183
ASSAY DETAILS: Inhibition of verampil-stimulated ATPase hydrolysis in recombinant human MDR1 expressed in Pichia pastoris measured after 30 mins in presence of NADH by coupled enzyme assay (reference value: 100 +/- 6 %)
Set-up: scale not given: the % may be the effect or the level left
CONDITION INFO: recombinant human MDR1 (P-gp) expressed in Pichia pastoris
PROPERTY NAME: Activity at 0.5 h (%)

COc1cc(NC(=O)CSCC(=O)Nc2cc(-c3cc(C)c(C)cc3C)nn2-c2ccccc2)cc(OC)c1OC: 61
Cc1cc(C)c(-c2cc(NC(=O)CSCC(=O)Nc3ccc4ncsc4c3)n(-c3ccccc3)n2)cc1C: 59
Cc1cc(C)c(-c2cc(NC(=O)CSc3nnc4c(n3)[nH]c3ccccc34)n(-c3ccccc3)n2)cc1C: 66
Cc1cc(C)c(-c2cc(NC(=O)CSCC(=O)NCc3ccc(F)cc3)n(-c3ccccc3)n2)cc1C: 59

* * *

SYSTEM NAME: UniProt:P08183
ASSAY DETAILS: Reversal of P-gp mediated multidrug resistance in human DU145-TxR cells overexpressing P-gp assessed as potentiation of paclitaxel-induced cytotoxicity by measuring fold reduction paclitaxel IC50 at 7 uM after 48 hrs by MTT assay relative to paclitaxel alone
Type: cell-based
// reported fold change (FC) for each item listed
Reply: number alone, nothing else.

Cc1cc(C)c(-c2cc(NC(=O)CSCC(=O)NCc3ccc(F)cc3)n(-c3ccccc3)n2)cc1C: 11
Cc1cc(C)c(-c2cc(NC(=O)CSCC(=O)Nc3ccc4ccccc4c3)n(-c3ccccc3)n2)cc1C: 303
Cc1cc(C)c(-c2cc(NC(=O)CSCC(=O)N3c4ccccc4CCc4ccccc43)n(-c3ccccc3)n2)cc1C: 353
Cc1cc(C)c(-c2cc(NC(=O)CSc3nnc4c(n3)[nH]c3ccccc34)n(-c3ccccc3)n2)cc1C: 125
Cc1cc(C)c(-c2cc(NC(=O)CSc3n[nH]c(C4CC4)n3)n(-c3ccccc3)n2)cc1C: 36
Cc1cc(C)c(-c2cc(NC(=O)CSc3cccc(NC(=O)c4cncc(Br)c4)c3)n(-c3ccccc3)n2)cc1C: 236

# ---- query compound ----
Reported fold change (FC) (UniProt:P08183) for entry COc1cc(NC(=O)CSCC(=O)Nc2cc(-c3cc(C)c(C)cc3C)nn2-c2ccccc2)cc(OC)c1OC is 3312

* * *

SYSTEM NAME: ATP-dependent translocase ABCB1 (Homo sapiens)
Sequence (P08183 whole entry): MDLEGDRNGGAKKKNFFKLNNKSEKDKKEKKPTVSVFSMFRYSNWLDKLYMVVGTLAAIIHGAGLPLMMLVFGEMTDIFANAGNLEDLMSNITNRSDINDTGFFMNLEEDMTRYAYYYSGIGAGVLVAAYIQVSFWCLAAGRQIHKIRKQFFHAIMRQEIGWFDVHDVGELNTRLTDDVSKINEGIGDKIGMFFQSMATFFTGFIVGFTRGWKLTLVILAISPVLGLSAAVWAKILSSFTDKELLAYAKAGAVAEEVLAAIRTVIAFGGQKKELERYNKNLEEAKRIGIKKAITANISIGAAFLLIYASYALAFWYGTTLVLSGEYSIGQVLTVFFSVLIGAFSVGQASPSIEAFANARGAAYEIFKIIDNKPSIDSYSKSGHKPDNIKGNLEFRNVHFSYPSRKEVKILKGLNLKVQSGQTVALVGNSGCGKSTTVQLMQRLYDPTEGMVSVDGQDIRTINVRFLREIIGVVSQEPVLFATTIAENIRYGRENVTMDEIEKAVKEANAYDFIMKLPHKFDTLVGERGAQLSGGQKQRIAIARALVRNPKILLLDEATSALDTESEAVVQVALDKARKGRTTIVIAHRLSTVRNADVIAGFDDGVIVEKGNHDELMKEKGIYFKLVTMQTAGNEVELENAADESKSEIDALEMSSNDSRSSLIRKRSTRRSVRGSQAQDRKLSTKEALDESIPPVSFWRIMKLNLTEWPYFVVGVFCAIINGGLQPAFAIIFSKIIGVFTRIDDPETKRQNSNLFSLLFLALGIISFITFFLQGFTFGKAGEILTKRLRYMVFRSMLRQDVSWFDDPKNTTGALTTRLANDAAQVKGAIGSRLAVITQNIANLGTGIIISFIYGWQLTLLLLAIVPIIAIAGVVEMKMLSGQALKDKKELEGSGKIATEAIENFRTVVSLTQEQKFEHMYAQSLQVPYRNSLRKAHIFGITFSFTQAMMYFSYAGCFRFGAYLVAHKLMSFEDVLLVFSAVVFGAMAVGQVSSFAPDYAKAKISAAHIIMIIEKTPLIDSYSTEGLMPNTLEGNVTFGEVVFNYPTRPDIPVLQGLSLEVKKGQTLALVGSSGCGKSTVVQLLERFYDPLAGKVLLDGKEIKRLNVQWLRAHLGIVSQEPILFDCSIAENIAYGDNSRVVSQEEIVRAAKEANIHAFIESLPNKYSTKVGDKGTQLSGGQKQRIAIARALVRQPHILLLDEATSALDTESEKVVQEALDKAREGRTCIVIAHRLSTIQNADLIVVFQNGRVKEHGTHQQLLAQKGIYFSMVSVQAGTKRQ
ASSAY DETAILS: Reversal of P-gp mediated multidrug resistance in human DU145-TxR cells overexpressing P-gp assessed as potentiation of paclitaxel-induced cytotoxicity by measuring fold reduction paclitaxel IC50 at 7 uM after 48 hrs by MTT assay relative to parent compound
Format: cell-based
PROPERTY NAME: fold change (FC)
Reply: number alone, nothing else.

Below: 5 compounds and their reported fold change (FC).
Cc1cc(C)c(-c2cc(NC(=O)CSCC(=O)NC34CC5CC(CC(C5)C3)C4)n(-c3ccccc3)n2)cc1C: 2.8
Cc1cc(C)c(-c2cc(NC(=O)CSCC(=O)Nc3ccc4ncsc4c3)n(-c3ccccc3)n2)cc1C: 20
Cc1cc(C)c(-c2cc(NC(=O)CSc3n[nH]c(C4CC4)n3)n(-c3ccccc3)n2)cc1C: 1
Cc1cc(C)c(-c2cc(NC(=O)CSCC(=O)NC(c3ccccc3)c3ccccc3)n(-c3ccccc3)n2)cc1C: 3.7
Cc1cc(C)c(-c2cc(NC(=O)CSc3cccc(NC(=O)c4cncc(Br)c4)c3)n(-c3ccccc3)n2)cc1C: 6.6

Reported fold change (FC) (ATP-dependent translocase ABCB1 (Homo sapiens)) for entry COc1cc(NC(=O)CSCC(=O)Nc2cc(-c3cc(C)c(C)cc3C)nn2-c2ccccc2)cc(OC)c1OC is 92

Reported fold change (FC) (ATP-dependent translocase ABCB1 (Homo sapiens)) for entry Cc1cc(C)c(-c2cc(NC(=O)CSCC(=O)N3c4ccccc4CCc4ccccc43)n(-c3ccccc3)n2)cc1C is 10

Reported fold change (FC) (ATP-dependent translocase ABCB1 (Homo sapiens)) for entry Cc1cc(C)c(-c2cc(NC(=O)CSCC(=O)Nc3ccc4ccccc4c3)n(-c3ccccc3)n2)cc1C is 8.4
